The values you see were collected from patent US6596687B1.

Target: VLA4 (Homo sapiens, UniProt P05556+P13612)
Construct: endogenous in cells; host or cells: Ramos cells
Sequence (P13612 34-1032): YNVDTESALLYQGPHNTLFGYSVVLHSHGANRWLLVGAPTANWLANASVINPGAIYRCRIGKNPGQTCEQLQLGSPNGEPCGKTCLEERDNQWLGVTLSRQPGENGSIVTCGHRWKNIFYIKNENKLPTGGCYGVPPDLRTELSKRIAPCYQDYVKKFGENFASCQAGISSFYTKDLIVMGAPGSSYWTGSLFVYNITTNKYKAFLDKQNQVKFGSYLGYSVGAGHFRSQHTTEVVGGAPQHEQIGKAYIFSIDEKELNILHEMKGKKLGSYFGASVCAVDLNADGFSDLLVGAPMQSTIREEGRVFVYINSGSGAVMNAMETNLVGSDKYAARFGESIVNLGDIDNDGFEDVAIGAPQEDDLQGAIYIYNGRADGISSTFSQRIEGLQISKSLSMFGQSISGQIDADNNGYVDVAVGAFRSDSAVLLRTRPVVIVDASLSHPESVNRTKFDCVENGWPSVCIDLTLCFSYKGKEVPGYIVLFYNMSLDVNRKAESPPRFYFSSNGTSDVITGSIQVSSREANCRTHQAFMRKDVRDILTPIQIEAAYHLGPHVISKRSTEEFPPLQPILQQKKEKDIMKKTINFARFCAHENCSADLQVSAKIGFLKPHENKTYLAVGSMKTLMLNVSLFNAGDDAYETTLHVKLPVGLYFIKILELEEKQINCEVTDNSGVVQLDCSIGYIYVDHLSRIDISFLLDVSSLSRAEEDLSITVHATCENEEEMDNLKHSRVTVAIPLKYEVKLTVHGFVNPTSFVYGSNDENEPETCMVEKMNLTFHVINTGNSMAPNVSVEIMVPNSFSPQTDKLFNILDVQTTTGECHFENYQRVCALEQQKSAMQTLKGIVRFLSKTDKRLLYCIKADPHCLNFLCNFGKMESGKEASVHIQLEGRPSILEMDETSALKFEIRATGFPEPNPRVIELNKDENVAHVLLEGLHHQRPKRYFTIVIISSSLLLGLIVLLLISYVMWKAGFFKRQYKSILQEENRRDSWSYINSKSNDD
Sequence (P05556 21-798): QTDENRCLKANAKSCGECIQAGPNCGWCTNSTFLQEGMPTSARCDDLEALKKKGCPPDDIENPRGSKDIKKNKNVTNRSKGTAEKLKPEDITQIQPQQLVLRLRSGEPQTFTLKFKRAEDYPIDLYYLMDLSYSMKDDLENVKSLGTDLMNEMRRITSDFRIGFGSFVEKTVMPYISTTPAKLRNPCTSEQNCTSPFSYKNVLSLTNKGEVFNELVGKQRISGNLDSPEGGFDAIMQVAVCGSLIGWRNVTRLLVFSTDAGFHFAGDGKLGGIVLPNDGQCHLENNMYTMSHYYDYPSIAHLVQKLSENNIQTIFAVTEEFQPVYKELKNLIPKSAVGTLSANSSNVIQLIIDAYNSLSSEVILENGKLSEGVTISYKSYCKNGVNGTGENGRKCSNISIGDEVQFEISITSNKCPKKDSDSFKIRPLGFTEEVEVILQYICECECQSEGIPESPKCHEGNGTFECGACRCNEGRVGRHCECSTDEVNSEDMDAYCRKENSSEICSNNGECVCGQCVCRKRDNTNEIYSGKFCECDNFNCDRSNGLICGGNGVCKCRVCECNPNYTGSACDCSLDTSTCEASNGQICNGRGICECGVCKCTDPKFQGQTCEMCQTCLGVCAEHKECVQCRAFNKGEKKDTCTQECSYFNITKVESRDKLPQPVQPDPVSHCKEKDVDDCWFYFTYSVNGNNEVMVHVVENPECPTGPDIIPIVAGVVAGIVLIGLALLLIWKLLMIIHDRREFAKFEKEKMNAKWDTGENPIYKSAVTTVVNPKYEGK
Assay: Inhibition of VLA4-dependent adhesion of Ramos cells to BSA-CS1
Assay type: cell-based
Details: Ramos cells, BSA-CS1 coated wells, 2 mM MnCl2, 30 minutes at room temperature; read-out: IC50
pIC50: −log10 of the molar value. Numbered stars: 1 amine (or outer) side, 2 acyl side, 3 side chain; on linkers, the order of the positions; unused ones are H or OH. Square brackets hold non-standard residues; d marks the D form. Peptide text beside a SMILES is read from it. * marks the point of attachment. X2 = O=C(Cc1ccc(N[*:1])cc1)[*:2]; CO = O=C([*:1])[*:2]; NHPh = c1ccc(N*)cc1
Measured Attribute: pIC50

COC(=O)[C@@H](NC(=O)[C@H](CC(=O)O)NC(=O)[C@H](CC(C)C)N(C)C(=O)c1ccc2ccccc2n1)C(C)C; < 5.00

# return recorded pIC50 for input `Cc1ccccc1NC(=O)Nc1ccc(CC(=O)N[C@@H](CCC(=O)O)C(=O)N[C@@H](CC(=O)O)C(=O)N[C@@H](CC(=O)O)C(N)=O)cc1`
> 7.30

Using known records, supply pIC50 for `Cc1ccccc1NC(=O)Nc1ccc(CC(=O)N[C@@H](CO)C(=O)N[C@@H](CC(=O)O)C(=O)N[C@@H](CCC(=O)O)C(N)=O)cc1`
> 7.30

Determine its reported pIC50: CC(C)C[C@H](NC(=O)Cc1ccc(NC(=O)Nc2ccccc2)cc1)C(=O)N[C@@H](CC(=O)O)C(=O)N[C@H](C(=O)N1CCC[C@H]1C(N)=O)C(C)C [Compound 201] ({NHPh-CO}-[X2]LDVP-NH2)
5.00 to 7.30

---

Reported IC50 values follow for various compounds
Target: VLA4 (Homo sapiens, UniProt P05556+P13612)
Construct: endogenous in cells; host or cells: Ramos cells
Experiment: Inhibition of VLA4-dependent adhesion of Ramos cells to BSA-CS1
Format: cell-based
Conditions: Ramos cells, BSA-CS1 coated wells, 2 mM MnCl2, 30 minutes at room temperature; read-out: IC50
Peptide text beside a SMILES is read from it. * marks the point of attachment. PhAc = O=C(Cc1ccccc1)*; Bn = c1ccc(C*)cc1

As a guide, the following entries are already answered.
COC(=O)[C@@H](NC(=O)[C@H](CC(=O)O)NC(=O)[C@H](CC(C)C)NC(=O)c1cc2ccccc2cn1)C(C)C [Compound 156]; 0.05 to 10 µM
CNC(=O)[C@H](COCc1ccccc1)NC(=O)[C@H](CC(=O)O)NC(=O)[C@H](CC(C)C)NC(=O)Cc1ccccc1 [Compound 352] (PhAc-Leu-Asp-Ser(Bn)-NHMe); > 10 µM
COC(=O)[C@@H](NC(=O)[C@H](CC(=O)O)NC(=O)[C@H](CC(C)C)NC(=O)c1ccc2ccccc2n1)[C@@H](C)O [Compound 170]; > 10 µM
C=CCC(CCc1ccccc1)C(=O)N[C@H](C(=O)N1CCC[C@H]1C(=O)O)C(C)C (stereo partly drawn) [Compound 151]; > 10 µM
CC(C)CNC(=O)[C@H](CC(=O)O)NC(=O)[C@H](CC(C)C)NC(=O)CCc1ccc(O)cc1 [Compound 100]; > 10 µM
CC(C)C[C@H](NC(=O)c1ccc2ccccc2n1)C(=O)N[C@@H](CC(=O)O)C(=O)N[C@H](C(=O)N1CCOCC1)C(C)C [Compound 175]; 0.05 to 10 µM
CC(C)C[C@H](NC(=O)c1ccc2ccccc2n1)C(=O)N[C@@H](CC(=O)O)C(=O)N[C@H](C(=O)O)C(C)C [Compound 94]; > 10 µM
CC(C)[C@H](NC(=O)[C@H](CC(=O)O)NC(=O)CCCCc1ccccc1)C(=O)O [Compound 76]; > 10 µM
CC(C)C[C@H](NC(=O)CCCCc1ccccc1)C(=O)N[C@@H](CC(=O)O)C(=O)N[C@H](C(=O)O)C(C)C [Compound 98]; > 10 µM
CC(C)C[C@H](NC(=O)c1cc2ccccc2cn1)C(=O)N[C@@H](CCC(=O)O)C(=O)N[C@H](C(=O)O)C(C)C [Compound 5]; > 10 µM

Please report IC50 for the following compound: COC(=O)[C@@H](NC(=O)[C@H](CC(=O)O)NC(=O)[C@H](CC(C)C)N(C)C(=O)CCc1ccc(O)cc1)C(C)C [Compound 18]
0.05 to 10 µM

---

Reported values of pIC50 for individual entries
Target: VLA4 (Homo sapiens, UniProt P05556+P13612)
Construct: endogenous in cells; host or cells: Ramos cells
Test: Inhibition of VLA4-dependent adhesion of Ramos cells to BSA-CS1
Type: cell-based
Conditions: Ramos cells, BSA-CS1 coated wells, 2 mM MnCl2, 30 minutes at room temperature; read-out: IC50
pIC50: −log10 of the molar value. Numbered stars: 1 amine (or outer) side, 2 acyl side, 3 side chain; on linkers, the order of the positions; unused ones are H or OH. Square brackets hold non-standard residues; d marks the D form. Peptide text beside a SMILES is read from it. * marks the point of attachment. X2 = O=C(Cc1ccc(N[*:1])cc1)[*:2]; NH(2-F-phenyl) = Fc1ccccc1N*; CO = O=C([*:1])[*:2]

// solved cases for pIC50 follow
COc1nc(CC(=O)N[C@@H](CC(C)C)C(=O)N[C@@H](CC(=O)O)C(=O)N[C@H](C(N)=O)C(C)C)ccc1NC(=O)Nc1ccccc1C; > 7.30
COC(=O)[C@@H](NC(=O)[C@H](CC(=O)O)N(C)C(=O)[C@H](CC(C)C)NC(=O)CCc1ccc(O)cc1)C(C)C; < 5.00
CC(C)C[C@H](NC(=O)Cc1ccc(NC(=O)Nc2ccccc2F)cc1)C(=O)N[C@@H](CC(=O)O)C(=O)N[C@H](C(=O)N1CCC[C@H]1C(=O)O)C(C)C [Compound 347] ({NH(2-F-phenyl)-CO}-[X2]LDVP-OH); > 7.30
CC(C)[C@H](NC(=O)[C@H](CC(=O)O)NC(=O)c1cc2ccccc2cn1)C(=O)O; < 5.00
CC(C)C[C@H](NC(=O)c1ccc2ccccc2n1)C(=O)N[C@@H](CC(=O)O)C(=O)N[C@H](C(=O)N(C)c1ccccc1)C(C)C; < 5.00

// next item, pIC50 requested
// fetch pIC50 given entry `COC(=O)[C@@H](NC(=O)[C@H](CC(=O)O)NC(=O)[C@H](CC(C)C)NS(=O)(=O)c1ccc(OC)cc1)[C@@H](C)O`
< 5.00

---

Target: VLA4 (Homo sapiens, UniProt P05556+P13612)
Construct: endogenous in cells; host or cells: Ramos cells
Experiment: Inhibition of VLA4-dependent adhesion of Ramos cells to BSA-CS1
Assay type: cell-based
Settings: Ramos cells, BSA-CS1 coated wells, 2 mM MnCl2, 30 minutes at room temperature; read-out: IC50
Measured Attribute: IC50

Worked cases, IC50 given:
CNC(=O)[C@@H](NC(=O)[C@H](CC(=O)O)NC(=O)[C@H](CC(C)C)N(C)C(=O)CCc1ccc(O)cc1)C(C)C; > 10 µM
Cc1ccccc1NC(=O)Nc1ccc(CC(=O)N[C@@H](CC(C)C)C(=O)N[C@@H](CC(=O)O)C(=O)N[C@@H](Cc2c[nH]c3ccccc23)C(N)=O)cc1; < 0.05 µM

For the molecule `CC(C)C[C@H](NC(=O)c1ccc2ccccc2n1)C(=O)N[C@@H](CC(=O)O)C(=O)N[C@H](C(=O)NC(C)(C)C)[C@@H](C)O` , give its measured IC50 value.
> 10 µM
